Ref: ChEMBL document CHEMBL4376900

assay: Intrinsic clearance in mouse liver microsomes in presence of NADPH-regenerating system incubated over 60 mins; type: ADME, Microsome; conditions: read-out: CLH
Observed property: microsomal CLint

Examples with their reported microsomal CLint follow.
CC(=O)NC1C2CC3CC1CC(C2)C31OO[C@]2(CC[C@@H](c3ccc(OCC(=O)O)cc3)CC2)O1 (stereo partly drawn)    < 7 µL/min/mg
O=C(O)COc1ccc([C@H]2CC[C@]3(CC2)OOC2(O3)C3CC4CC2CC(C3)C4O)cc1 (stereo partly drawn)    < 7 µL/min/mg

// moving on: another record for microsomal CLint
Which microsomal CLint is listed for O=C(O)CN1CCC(Oc2ccc([C@H]3CC[C@]4(CC3)OOC3(O4)C4CC5CC(C4)CC3C5)cc2)CC1 (stereo partly drawn) ?
< 7 µL/min/mg
